# Assay Explanation: PET hydrolysis, aromatic products released after 48 h (umol product/mg enzyme); higher = more PET depolymerization activity
# Condition Set: substrate: cryPow; 40 °C; pH 5.5

[
  {
    "Sequence Chain": "DEIGQAPTSSNITGNGSFSVSTYNISSLVTGFGGGVAYYPSTAGRYPVVAVSPGFTARWSSISWIGPRLASWGFVVVGIETNSVYDQPASRGSQLLAALNWAVNSAPSAITSRADGSRRGVAGHSMGGGGTLEALAADTTGNVKAGVPLAPWNSDKTWNNVNEPVQIIGGESDTVAGVSSHSIPFYNSLGGSKSYVELNGASHFFPQTTNATTSRALVSWFKRWLNQDARFTPFTCGYGGTAVSDFRTNAC [ESM177]",
    "Comparator": "<",
    "PET hydrolysis": 3
  },
  {
    "Sequence Chain": "AANPYERGPAPTAASIAATTGPFAVASVSVPRGNGFGGGVIYYPTSTSQGTFGGVAISPGLNGTWAGIAWLGPRLASQGFVIFGIETNNLNDSPASRGTQLLAALDFLTRSSSVRTRVDASRLAVAGHSMGGGGALSAALQRPSLQAAIGNAPHLPSGSLATDRVPTLIYAMQNDTLVTPSRLTSLYNSMPATTERAYIEVAGAGHNYIGQPSTTLARTMIPWLKIFVDNDARYSQFLCPLSNQSGISQYRNSCPLISTTTLSTGVDSTSGLAVR [ESM157]",
    "Comparator": "=",
    "PET hydrolysis": 17.5
  }
]

====

# Assay Explanation: PET hydrolysis, aromatic products released after 48 h (umol product/mg enzyme); higher = more PET depolymerization activity
# Condition Set: substrate: aFilm; 40 °C; pH 5.5
Reported PET hydrolysis values for a set of sequences

[
  {
    "Sequence Chain": "MLTITVATGSASAADNPYQRGPDPTRTSVTAVNGPFANTSVSVPTGYGFNGGRIYYPTDTSQGTFGAIAISPGYTALFSAELAWMGPWLASHGFVVIGIETNSRNDFDTARGTQLLAALDYLTQQSPVRDRVDPNRLAVAGHSMGGGGALSAATRRSSLKAVVGIAPYSPSSNLANDRVPTMIFAGQADTVVTPSYATGLYNSLPTTTESAYLEVAGADHGFMVGRSNPVMVRTMLPFVKMFIDNDARYSQFLCPLLDSSGVVTYRSTCPLLPSTPPTSTPTPTDPPTPTPTPTVPPGSASEIVGTQSSRCIDVPNASRNNGTRVQLYDCNKQTNQA [ESM121]",
    "Comparator": "<",
    "PET hydrolysis": 3
  },
  {
    "Sequence Chain": "ADNPYQRGPDPTRTSVTAVNGPFANTSVSVPTGHGFNGGRIYYPTDTSQGTFGAIAISPGYTALFSAELAWMGPWLASHGFVVIGIETNSRNDFDTARGTQLLAALDYLTQQSPVRDRVDPSRLAVSGHSMGGGGALSAAMRRASLKAVVGITPYSPSSNLANDRVPTMIISGQADTVVTPSYALGLYNSIPATTESVYLEVAGGDHGFMVGRSNPVLVRTMLPFLKMFIDNDTRYSQFLCPLLDNSGVVTYRSTCPLLPTDPTTPPTGTPTPTPTTPAPTTPPPTTPPGSASEIRGTQSNRCIDVPNASRNNGTRVQLYDCNRQTNQAWTYTANKQLQVYGNMC [ESM106]",
    "Comparator": "=",
    "PET hydrolysis": 1.5
  }
]

Reference source for all entries: the supplement of paper PMC12455559
